Target sequence: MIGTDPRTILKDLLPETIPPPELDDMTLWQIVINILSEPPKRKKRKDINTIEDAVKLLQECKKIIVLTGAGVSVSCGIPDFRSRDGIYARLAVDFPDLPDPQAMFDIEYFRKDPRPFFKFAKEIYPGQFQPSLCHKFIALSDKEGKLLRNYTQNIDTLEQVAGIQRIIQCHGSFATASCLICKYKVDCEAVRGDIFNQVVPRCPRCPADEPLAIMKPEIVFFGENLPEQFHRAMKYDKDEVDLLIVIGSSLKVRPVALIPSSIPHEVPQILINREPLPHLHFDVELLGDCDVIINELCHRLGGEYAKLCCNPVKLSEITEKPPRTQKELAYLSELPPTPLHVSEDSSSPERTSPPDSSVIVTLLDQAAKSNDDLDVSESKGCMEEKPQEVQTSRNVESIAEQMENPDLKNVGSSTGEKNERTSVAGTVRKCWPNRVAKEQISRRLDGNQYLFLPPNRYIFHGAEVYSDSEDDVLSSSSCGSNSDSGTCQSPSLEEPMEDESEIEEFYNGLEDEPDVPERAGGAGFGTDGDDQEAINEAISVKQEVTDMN
resultType: IC50 (nM)
Quick reminder: number only, in nM, skip the unit.

Which IC50 is reported for this compound? `CCCCCCCCCCCCNC(=S)NCCCC[C@H](NS(C)(=O)=O)C(=O)N[C@@H](C)C(=O)N[C@@H](CCCNC(=N)N)C(N)=O`
370
